Taken from the Human Domainome abundance scans (Beltran et al. 2025).

B1: Protein S100-G, residues 1 to 79; numbered along this chain, P02633 (parent)
chain: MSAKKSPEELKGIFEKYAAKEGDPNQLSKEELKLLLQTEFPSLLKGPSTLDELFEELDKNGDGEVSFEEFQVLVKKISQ

Variants of: B1
test_details: abundance fitness (aPCA) (normalised: wild type 0, dead -1); higher = more abundant; growth selection in yeast, the domain comes from the species named
reported_conditions: Bos taurus
Field: class. Source value: abundance fitness. Ranges: low interval: < -0.06; middle interval: ≥ -0.06 and < -0.001; high interval: ≥ -0.001

| mutation_label | class_name |
| --- | --- |
| S6D | low interval |
| L43N | low interval |
| K45H | high interval |
| L35S | low interval |
| E8I | middle interval |
| E9C | low interval |
| D51S | middle interval |
| E64P | high interval |
| E8V | middle interval |
| E55L | high interval |
| L53T | high interval |
| E52K | high interval |
| S42G | middle interval |
| S28H | middle interval |
| L50N | low interval |
| L44P | high interval |
| D62Y | low interval |
| L57R | middle interval |
| F54D | high interval |
| K16I | low interval |
